assayed-target: T1, human VEGF (human, UniProt P15692 207-395, biotinylated (site not stated))
T1 construct: Biotinylated human VEGF generated internally; also called hVEGF; hVEGF-biotin
T1 sequence: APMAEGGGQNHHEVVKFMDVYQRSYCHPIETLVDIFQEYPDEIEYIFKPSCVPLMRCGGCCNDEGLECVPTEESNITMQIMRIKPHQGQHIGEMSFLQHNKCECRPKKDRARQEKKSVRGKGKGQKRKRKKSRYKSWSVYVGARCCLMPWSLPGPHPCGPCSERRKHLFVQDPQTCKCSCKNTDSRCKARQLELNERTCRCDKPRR
assay-explanation: Biacore SPR, hVEGF
experimental-readout: Kd (pM)
One number for each entry, in pM.

Use these answered entries as a reference point.
HC3T (Fab, V domains shown, Tagged heavy chain CDR variant HC3 with NVS4 light chain) VH: EVQLVESGGGLVQPGGSLRLSCTASGFSLTNYYYMTWVRQAPGKGLEWVGFIDPQNNPYYATWAKGRFTISRDNSKNTLYLQMNSLRAEDTAVYYCAGGNHNSGWGLDIWGQGTLVTVSS VL: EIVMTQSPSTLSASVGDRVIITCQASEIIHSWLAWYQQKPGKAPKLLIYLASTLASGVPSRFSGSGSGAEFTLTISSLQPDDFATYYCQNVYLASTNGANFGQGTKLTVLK    80
LC1T (Fab, V domains shown, Light chain CDR variant LC1 of NVS4 with tagged NVS4 heavy chain) VH: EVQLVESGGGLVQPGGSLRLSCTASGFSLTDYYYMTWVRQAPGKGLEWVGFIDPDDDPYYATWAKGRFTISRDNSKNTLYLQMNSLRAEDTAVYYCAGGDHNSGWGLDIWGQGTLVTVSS VL: EIVMTQSPSTLSASVGDRVIITCQASQIIHSWLAWYQQKPGKAPKLLIYQASTLAKGVPSRFSGSGSGAEFTLTISSLQPDDFATYYCQNVYLASTNGANFGQGTKLTVLK    1.23
NVS4 light chain variant I28K (Fab, V domains shown, CDR variant of NVS4) VH: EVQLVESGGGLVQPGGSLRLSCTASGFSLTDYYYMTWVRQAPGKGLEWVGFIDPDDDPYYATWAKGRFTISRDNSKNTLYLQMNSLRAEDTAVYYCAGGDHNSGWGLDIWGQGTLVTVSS VL: EIVMTQSPSTLSASVGDRVIITCQASEKIHSWLAWYQQKPGKAPKLLIYLASTLASGVPSRFSGSGSGAEFTLTISSLQPDDFATYYCQNVYLASTNGANFGQGTKLTVLK    5.34
NVS4 heavy chain variant Y32H (Fab, V domains shown, CDR variant of NVS4; The label Y32H is printed in two rows (r156, r159) with different values) VH: EVQLVESGGGLVQPGGSLRLSCTASGFSLTDHYYMTWVRQAPGKGLEWVGFIDPDDDPYYATWAKGRFTISRDNSKNTLYLQMNSLRAEDTAVYYCAGGDHNSGWGLDIWGQGTLVTVSS VL: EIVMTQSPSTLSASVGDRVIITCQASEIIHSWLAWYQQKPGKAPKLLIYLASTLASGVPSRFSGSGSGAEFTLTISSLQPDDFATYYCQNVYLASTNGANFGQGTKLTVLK    20.4

[Q] Quick check: Kd of NVS4 heavy chain variant D100N (Fab, V domains shown, CDR variant of NVS4) VH: EVQLVESGGGLVQPGGSLRLSCTASGFSLTDYYYMTWVRQAPGKGLEWVGFIDPDDDPYYATWAKGRFTISRDNSKNTLYLQMNSLRAEDTAVYYCAGGNHNSGWGLDIWGQGTLVTVSS VL: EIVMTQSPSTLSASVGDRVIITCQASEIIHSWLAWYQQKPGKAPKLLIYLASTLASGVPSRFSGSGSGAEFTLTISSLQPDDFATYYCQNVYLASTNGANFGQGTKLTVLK ?
[A] 5.49
